measured.target: EphA4 (Mus musculus)
test.description: EphA4 AP binding to immobilized KYL peptide
conditions.used: read-out: IC50 ± SE EphA4 KYL
Recorded IC50 values for a group of compounds are listed next.
Please reply with the bare figure in µM and do not write the unit itself.

O=C(Oc1cc(O)cc2c1C[C@@H](OC(=O)c1cc(O)c(O)c(O)c1)[C@@H](c1cc(O)c(O)c(O)c1)O2)c1cc(O)c(O)c(O)c1 [epigallocatechin-3,5-digallate] | 1.5

Here is the next item to consider.
Documented IC50 of O=C(O[C@@H]1Cc2c(O)cc(O)cc2O[C@@H]1c1ccc(O)c(O)c1)c1cc(O)c(O)c(O)c1 [epicatechin-3-monogallate, epicatechin-3-gallate] : 50

----------
Recorded (% Inhib.) EphA4 KYL values for a group of compounds are listed next.
measured.target: EphA4 (Mus musculus)
test.description: EphA4 AP binding to immobilized KYL peptide
conditions.used: screen, compounds at 10 μM
Please reply with the bare figure in % and do not write the unit itself.

O=C(Oc1cc(O)cc2c1C[C@@H](OC(=O)c1cc(O)c(O)c(O)c1)[C@@H](c1cc(O)c(O)c(O)c1)O2)c1cc(O)c(O)c(O)c1 [epigallocatechin-3,5-digallate] | 58

Here is the next item to consider.
Documented (% Inhib.) EphA4 KYL of O=C(O[C@@H]1Cc2c(O)cc(O)cc2O[C@@H]1c1cc(O)c(O)c(O)c1-c1c([C@H]2Oc3cc(O)cc(O)c3C[C@H]2OC(=O)c2cc(O)c(O)c(O)c2)cc(O)c(O)c1O)c1cc(O)c(O)c(O)c1 [2′,2‴-bisepigallocatechin digallate] : 76

----------
measured.target: EphA4 (Mus musculus, UniProt Q03137)
Sequence (Q03137 20-547 limits assumed): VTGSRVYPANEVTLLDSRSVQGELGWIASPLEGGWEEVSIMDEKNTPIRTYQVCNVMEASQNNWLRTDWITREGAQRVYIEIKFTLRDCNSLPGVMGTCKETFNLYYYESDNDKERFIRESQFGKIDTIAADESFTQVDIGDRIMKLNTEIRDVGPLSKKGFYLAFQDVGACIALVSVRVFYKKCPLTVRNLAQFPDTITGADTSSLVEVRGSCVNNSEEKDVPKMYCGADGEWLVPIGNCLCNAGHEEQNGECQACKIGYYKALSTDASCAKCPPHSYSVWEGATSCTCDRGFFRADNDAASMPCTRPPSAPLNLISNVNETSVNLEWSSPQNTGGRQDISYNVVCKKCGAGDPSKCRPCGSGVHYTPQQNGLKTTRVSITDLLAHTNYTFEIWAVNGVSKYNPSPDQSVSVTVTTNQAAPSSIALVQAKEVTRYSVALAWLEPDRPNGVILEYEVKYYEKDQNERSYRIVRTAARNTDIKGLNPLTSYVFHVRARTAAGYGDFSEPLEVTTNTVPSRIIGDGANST
test.description: EphA4 AP binding to immobilized KYL peptide
Recorded IC50 values for a group of compounds are listed next.
Please reply with the bare figure in µM and do not write the unit itself.

Oc1cc(O)c2c(c1)O[C@H](c1ccc(O)c(O)c1)[C@H](O)C2 [epicatechin] | 190

Here is the next item to consider.
For the compound Oc1cc(O)c2c(c1)O[C@H](c1cc(O)c(O)c(O)c1)[C@H](O)C2 [epigallotechin, epigallocatechin] , the measured IC50 on EphA4 (Mus musculus, UniProt Q03137) was 44

----------
measured.target: EphA3
test.description: ELISA, ephrin-A5 AP binding to immobilized EphA3 Fc
conditions.used: read-out: IC50, inhibition of ephrin binding to EphA3
pIC50: −log10 of the molar value.
reported.metric: pIC50

Documented pIC50 of O=C(Oc1cc(O)cc2c1C[C@@H](OC(=O)c1cc(O)c(O)c(O)c1)[C@@H](c1cc(O)c(O)c(O)c1)O2)c1cc(O)c(O)c(O)c1 [epigallocatechin-3,5-digallate] : > 5.00

----------
measured.target: EphA4 (Mus musculus)
test.description: ELISA, ephrin-A5 AP binding to immobilized EphA4 Fc
conditions.used: read-out: IC50, inhibition of EphA4-ephrin-A5 binding (text); listed as Epigallocatechin-3,5-digallate
reported.metric: IC50

Documented IC50 of O=C(Oc1cc(O)cc2c1C[C@@H](OC(=O)c1cc(O)c(O)c(O)c1)[C@@H](c1cc(O)c(O)c(O)c1)O2)c1cc(O)c(O)c(O)c1 [epigallocatechin-3,5-digallate] : < 10 µM

----------
measured.target: EphA4 (Mus musculus, UniProt Q03137)
test.description: EphA4 AP binding to immobilized KYL peptide
conditions.used: read-out: (% Inhib.) EphA4 KYL
Recorded inhibition at 10 µM values for a group of compounds are listed next.

Documented inhibition at 10 µM of O=C(O[C@@H]1Cc2c(O)cc(O)cc2O[C@@H]1c1cc(O)c(O)c(O)c1-c1c([C@H]2Oc3cc(O)cc(O)c3C[C@H]2O)cc(O)c(O)c1O)c1cc(O)c(O)c(O)c1 [2′,2′-bisepigallocatechin monogallate] : 80%

Documented inhibition at 10 µM of Oc1cc(O)c2c(c1)O[C@H](c1cc(O)c(O)c(O)c1)[C@H](O)C2 [epigallotechin, epigallocatechin] : < 40%

Documented inhibition at 10 µM of O=c1c(O)cc([C@H]2Oc3cc(O)cc(O)c3C[C@H]2O)cc2c([C@H]3Oc4cc(O)cc(O)c4C[C@H]3O)cc(O)c(O)c12 [theaflavin] : < 40%

Documented inhibition at 10 µM of Oc1cc(O)c2c(c1)O[C@H](c1ccc(O)c(O)c1)[C@H](O)C2 [epicatechin] : < 40%

----------
Recorded IC50 values for a group of compounds are listed next.
measured.target: EphA4 (Mus musculus, UniProt Q03137)
test.description: ELISA, ephrin-A5 AP binding to immobilized EphA4 Fc

Oc1cc(O)c2c(c1)O[C@H](c1cc(O)c(O)c(O)c1)[C@H](O)C2 [epigallotechin, epigallocatechin] | > 200 µM

Documented IC50 of Oc1cc(O)c2c(c1)O[C@H](c1ccc(O)c(O)c1)[C@H](O)C2 [epicatechin] : > 200 µM

----------
measured.target: EphB4 (Mus musculus, UniProt P54761)
Sequence (P54761 16-539): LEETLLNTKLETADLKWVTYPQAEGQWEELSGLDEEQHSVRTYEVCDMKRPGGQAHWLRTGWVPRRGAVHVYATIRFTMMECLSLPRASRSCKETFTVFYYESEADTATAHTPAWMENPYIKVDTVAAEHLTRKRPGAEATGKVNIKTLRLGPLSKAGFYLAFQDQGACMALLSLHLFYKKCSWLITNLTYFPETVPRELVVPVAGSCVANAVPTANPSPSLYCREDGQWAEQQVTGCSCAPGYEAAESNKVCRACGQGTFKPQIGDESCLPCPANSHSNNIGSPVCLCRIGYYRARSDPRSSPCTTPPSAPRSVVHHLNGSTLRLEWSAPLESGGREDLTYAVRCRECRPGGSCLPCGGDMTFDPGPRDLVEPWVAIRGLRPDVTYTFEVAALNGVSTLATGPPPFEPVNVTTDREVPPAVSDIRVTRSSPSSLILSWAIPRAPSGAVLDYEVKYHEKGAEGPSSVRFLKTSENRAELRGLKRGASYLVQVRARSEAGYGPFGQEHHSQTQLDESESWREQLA
test.description: ELISA, ephrin-B2 AP binding to immobilized EphB4 Fc
conditions.used: read-out: IC50 ± SE EphB4 ephrin-B2
pIC50: −log10 of the molar value.
reported.metric: pIC50

For the compound O=C(O[C@@H]1Cc2c(O)cc(O)cc2O[C@@H]1c1ccc(O)c(O)c1)c1cc(O)c(O)c(O)c1 [epicatechin-3-monogallate, epicatechin-3-gallate] , the measured pIC50 on EphB4 (Mus musculus, UniProt P54761) was < 3.70

----------
measured.target: EphA4 (Mus musculus)
test.description: ELISA, ephrin-A5 AP binding to immobilized EphA4 Fc
conditions.used: read-out: IC50, inhibition of EphA4-ephrin-A5 binding (text)
reported.metric: IC50 (µM)
Please reply with the bare figure in µM and do not write the unit itself.

Documented IC50 of O=C(Oc1cc(O)cc2c1C[C@@H](OC(=O)c1cc(O)c(O)c(O)c1)[C@@H](c1cc(O)c(O)c(O)c1)O2)c1cc(O)c(O)c(O)c1 [epigallocatechin-3,5-digallate] : 8

----------
measured.target: EphA4 (Mus musculus)
test.description: ELISA, ephrin-A5 AP binding to immobilized EphA4 Fc
conditions.used: read-out: IC50 ± SE EphA4 ephrin-A5
reported.metric: IC50 (µM)
Please reply with the bare figure in µM and do not write the unit itself.

For the molecule O=C(Oc1cc(O)cc2c1C[C@@H](OC(=O)c1cc(O)c(O)c(O)c1)[C@@H](c1cc(O)c(O)c(O)c1)O2)c1cc(O)c(O)c(O)c1 [epigallocatechin-3,5-digallate] , the measured IC50 on EphA4 (Mus musculus) was 7.4

----------
measured.target: EphB6
test.description: ELISA, ephrin-B2 AP binding to immobilized EphB6 Fc
conditions.used: read-out: IC50, inhibition of ephrin binding to EphB6
pIC50: −log10 of the molar value.
reported.metric: pIC50

Documented pIC50 of O=C(Oc1cc(O)cc2c1C[C@@H](OC(=O)c1cc(O)c(O)c(O)c1)[C@@H](c1cc(O)c(O)c(O)c1)O2)c1cc(O)c(O)c(O)c1 [epigallocatechin-3,5-digallate] : > 5.00

----------
measured.target: EphA4 (Mus musculus, UniProt Q03137)
test.description: EphA4 AP binding to immobilized KYL peptide
conditions.used: screen, compounds at 10 μM
reported.metric: (% Inhib.) EphA4 KYL

O=C(O)c1cc(O)c(=O)c2c(O)c(O)cc([C@H]3Oc4cc(O)cc(O)c4C[C@@H]3O)c2c1 | less than 40%
O=C(O)c1cc(O)c(=O)c2c(O)c(O)cc([C@H]3Oc4cc(O)cc(O)c4C[C@H]3O)c2c1 [epitheaflavic acid] | less than 40%
O=C(O[C@@H]1Cc2c(O)cc(O)cc2O[C@@H]1c1ccc(O)c(O)c1)c1cc(O)c(O)c(O)c1 [epicatechin-3-monogallate, epicatechin-3-gallate] | < 40%
